assay: Solubility test at pH=4 from phosphate buffer pH 6 0.1M, by HPLC; type: physicochemical; details: second figure of the S/pH cell; pH noted for the solubility sample
Counter-ions that a name gives are not always drawn.
Here, each record is paired with measured pH (of the solubility sample) data.
QUANTITY KIND: pH (of the solubility sample)

COMPOUND	MEAS VALUE
CCCN(CCC)CCCCc1ccc(C(=O)c2c(C(C)C)cc3ccccn23)cc1 [compound 14, oxalate]	4.10
CCCCN(CCCC)CCCc1ccc(C(=O)c2c(CCC)cc3ccccn23)cc1 [compound 19, hydrochloride]	5.27
CCCN(CC)CCCc1ccc(C(=O)c2c(C)cc3ccccn23)cc1 [compound 26, hydrochloride]	7.14
CCCCN(CCCC)CCCCc1ccc(C(=O)c2c(CCC)cc3ccccn23)cc1 [compound 22, oxalate]	4.58
CCCCN(CCCC)CCCc1ccc(C(=O)c2c(CC)cc3ccccn23)cc1 [compound 18, hydrochloride]	5.42
CCCCc1cc2ccccn2c1C(=O)c1ccc(CCCN2CCCCC2)cc1 [compound 42, oxalate]	5.18
CCCN(CC)CCCc1ccc(C(=O)c2c(CC)cc3ccccn23)cc1 [compound 24, oxalate]	4.51
CCCc1cc2ccccn2c1C(=O)c1ccc(CCCCN(CCC)CCC)cc1 [compound 16, hydrochloride]	5.81
CCCN(CCC)CCCc1ccc(C(=O)c2c(C)cc3ccccn23)cc1 [compound 13, hydrochloride]	7.2
CCCCN(CCCC)CCCCc1ccc(C(=O)c2c(CC)cc3ccccn23)cc1 [compound 21, oxalate]	4.08
CCCCc1cc2ccccn2c1C(=O)c1ccc(CCCNCCC)cc1.Cl	7.14
CCCc1cc2ccccn2c1C(=O)c1ccc(CCCN(CCC)CCC)cc1 [compound 9, hydrochloride]	5.82
CCCN(CCC)CCCCc1ccc(C(=O)c2c(C)cc3ccccn23)cc1 [compound 15, hydrochloride]	6.33
CCCCc1cc2ccccn2c1C(=O)c1ccc(CCCN2C[C@@H](C)N(C)[C@@H](C)C2)cc1 [compound 40, hydrochloride]	4.3
CCCc1cc2ccccn2c1C(=O)c1ccc(CCCN(CC)CCC)cc1 [compound 29, hydrochloride]	5.94
CCCCc1cc2ccccn2c1C(=O)c1ccc(CCCCN(CCCC)CCCC)cc1 [compound 20, oxalate]	4.02

---

Here, each record is paired with measured solubility at 5 min data.
experiment: Solubility test at pH=4 from phosphate buffer pH 6 0.1M, by HPLC; type: physicochemical; settings: aqueous buffer, thermodynamic from solid; phosphate buffer pH 6 0.1M, HPLC; first figure of the S/pH cell, the pH of the sample is the second
Counter-ions that a name gives are not always drawn.

COMPOUND	solubility at 5 min
CCCN(CCC)CCCCc1ccc(C(=O)c2c(CC)cc3ccccn23)cc1 [compound 11, hydrochloride]	> 10000 µg/mL
CCCCc1cc2ccccn2c1C(=O)c1ccc(CCCN2C[C@@H](C)N[C@@H](C)C2)cc1 [compound 39, hydrochloride]	> 10000 µg/mL
CCCc1cc2ccccn2c1C(=O)c1ccc(CCCN(CC)CC)cc1.Cl	> 10000 µg/mL
